system: P388 leukemia ip, CD2F1 mice, survival T/C; experiment: NCI In Vivo Anticancer Drug Screen. Data for tumor model P388 Leukemia (intraperitoneal) in CD2F1 (CDF1) mice; details: endpoint: median survival time; dose: 400.0 mg/kg/injection; schedule: Q01DX009 (ip); vehicle: saline with Tween-80; higher = longer survival
Inconclusive results and toxic doses are left out.
Listing of recorded T/C by entry.

Known T/C results, listed for orientation:
{"molecule": "CC(C)(C)c1cc(C(C)(C)c2ccccc2)cc(Cc2cc(C(C)(C)c3ccccc3)cc(C(C)(C)C)c2O)c1O", "T/C": "89 % of control"}
{"molecule": "NC1CONC1=O (configuration not stated)", "T/C": "100 % of control"}
{"molecule": "On1cnc(=S)c2[nH]cnc21", "T/C": "109 % of control"}
{"molecule": "CCN(CC)CN1C(=O)C2C3C=CC(C2C1=O)C1C2C(=O)N(CN(CC)CC)C(=O)C2C31 (configuration not stated)", "T/C": "111 % of control"}
{"molecule": "CCOC(=O)C1=C(C)N(Cc2ccccc2)C(C)=C(C(=O)OCC)C1(C)C", "T/C": "118 % of control"}

Problem: Record request: T/C value, item "c1ccc(Cc2ccccn2)nc1"
Solution: 95 % of control

Problem: Record request: T/C value, item C=C(C)C1Cc2c(ccc3c2OC2COc4cc(OC)c(OC)cc4C2C3=O)O1 (configuration not stated)
Solution: 95 % of control

Problem: Record request: T/C value, item "Cc1[nH]c(=O)[nH]c(=O)c1CO"
Solution: 100 % of control

====

tested on: P388 leukemia ip, CD2F1 mice, survival T/C; assay: NCI In Vivo Anticancer Drug Screen. Data for tumor model P388 Leukemia (intraperitoneal) in CD2F1 (CDF1) mice; conditions: endpoint: median survival time; dose: 50.0 mg/kg/injection; schedule: Q01DX005 (ip); vehicle: Klucel (hydroxypropylcellulose) (HPC); higher = longer survival
Inconclusive results and toxic doses are left out.
measured-attribute: T/C

Known T/C results, listed for orientation:
{"compound": "COc1ccc2c3c([nH]c2c1[N+](=O)[O-])C(C)NCC3 (stereo unspecified)", "tested-target": "P388 leukemia ip, CD2F1 mice, survival T/C", "T/C": "92 % of control"}
{"compound": "O=C1C(c2ccccn2)=C(O)c2ccccc21", "tested-target": "P388 leukemia ip, CD2F1 mice, survival T/C", "T/C": "104 % of control"}
{"compound": "COc1cc2c(c3c1c(=O)c1ccc(F)cc1n3C)C=CC(C)(C)O2", "tested-target": "P388 leukemia ip, CD2F1 mice, survival T/C", "T/C": "98 % of control"}
{"compound": "N#CCCN(N)S(=O)(=O)c1ccc(Cl)cc1", "tested-target": "P388 leukemia ip, CD2F1 mice, survival T/C", "T/C": "97 % of control"}
{"compound": "CC(=O)c1c(O)c2c(=O)n(C)c(C)cc2n(C)c1=O", "tested-target": "P388 leukemia ip, CD2F1 mice, survival T/C", "T/C": "100 % of control"}

Read the next record carefully.
Problem: Record request: T/C value, item "CC(C)(C)[Si](C)(C)O[C@@H]1C=C(S(=O)(=O)c2ccccc2)[C@H](N2CCSCC2)C1"
Solution: 92 % of control

====

tested on: P388 leukemia ip, CD2F1 mice, survival T/C; test: NCI In Vivo Anticancer Drug Screen. Data for tumor model P388 Leukemia (intraperitoneal) in CD2F1 (CDF1) mice; details: endpoint: median survival time; dose: 240.0 mg/kg/injection; schedule: Q01DX005 (ip); vehicle: saline; higher = longer survival
Toxic doses and inconclusive results are not listed.
measured-attribute: T/C

Problem: Query T/C on P388 leukemia ip, CD2F1 mice, survival T/C for "CS(=O)(=O)C(c1nc2nnc(N)n2[nH]c1=O)c1nc2nnc(N)n2[nH]c1=O"
Solution: 105 % of control

Problem: Query T/C on P388 leukemia ip, CD2F1 mice, survival T/C for "NC(=O)[C@H]1C[C@H](O)CN1C(=O)c1cnc2ccccc2c1"
Solution: 102 % of control

Problem: Query T/C on P388 leukemia ip, CD2F1 mice, survival T/C for COC(=O)C(OC)(OC)C(O)c1ccccc1 (stereo not given)
Solution: 113 % of control

====

system: P388 leukemia ip, CD2F1 mice, survival T/C; test: NCI In Vivo Anticancer Drug Screen. Data for tumor model P388 Leukemia (intraperitoneal) in CD2F1 (CDF1) mice; conditions: endpoint: median survival time; dose: 200.0 mg/kg/injection; schedule: Q04DX003 (ip); vehicle: saline; higher = longer survival
Toxic doses and inconclusive results are not listed.
Listing of recorded T/C by entry.

Known T/C results, listed for orientation:
{"compound": "CC(C)CNC12CN3CN(CN(C3)C1)C2", "T/C": "90 % of control"}
{"compound": "BrC1CCCCC(Br)C12OCCO2 (centres undefined)", "T/C": "104 % of control"}
{"compound": "CC(C)(O)Cn1ccccc1=O", "T/C": "97 % of control"}
{"compound": "CCOC(=O)C1(c2ccccc2)SC(C(=O)OCC)(c2ccccc2)S1 (centres undefined)", "T/C": "107 % of control"}
{"compound": "OCC(COCCCCCCCCCCCC1C=CCC1)OCCCCCCCCCCCC1C=CCC1 (centres undefined)", "T/C": "104 % of control"}
{"compound": "C[n+]1ccc(C(=O)O)cc1 (tested in a mixture with another compound)", "T/C": "98 % of control"}

Problem: Record request: T/C value, item "Cc1ccc(S(=O)(=O)ON/N=c2\ccn(C)c3ccccc23)cc1"
Solution: 99 % of control

Problem: Record request: T/C value, item "Cc1nn(C(=O)c2ccncc2)c(C)c1N=Nc1ccc(S(=O)(=O)Nc2nccs2)cc1"
Solution: 97 % of control

Problem: Record request: T/C value, item "CN1CCN(CC(=O)c2c(-c3ccccc3)[nH]c3ccccc23)CC1"
Solution: 105 % of control

Problem: Record request: T/C value, item "CCOC(=O)c1cn2ccccc2c(C(=O)c2cccnc2)c1=N"
Solution: 96 % of control

Problem: Record request: T/C value, item "Nc1nc(-c2ccccc2)nc(Cl)c1I"
Solution: 94 % of control

====

test system: P388 leukemia ip, CD2F1 mice, survival T/C; assay: NCI In Vivo Anticancer Drug Screen. Data for tumor model P388 Leukemia (intraperitoneal) in CD2F1 (CDF1) mice; details: endpoint: median survival time; dose: 12.5 mg/kg/injection; schedule: Q01DX009 (ip); vehicle: saline; higher = longer survival
Toxic doses and inconclusive results are not listed.
Listing of recorded T/C by entry.

Known T/C results, listed for orientation:
{"compound": "C=C(C)C(=O)Nc1ccc(NC(C)C)cc1", "T/C": "105 % of control"}
{"compound": "CC(=O)NNC(=O)c1ccccn1", "T/C": "90 % of control"}
{"compound": "Nc1ccncc1N", "T/C": "103 % of control"}

Problem: Record request: T/C value, item "CCN(CC)CCCCCCCNc1cc(OC)cc2c(C)ccnc12"
Solution: 93 % of control

Problem: Record request: T/C value, item COP(=O)(OC)C(O)C1CCCCC1 (stereo unspecified)
Solution: 100 % of control

Problem: Record request: T/C value, item O=C(O)C(O)C(O)C(=O)O.[Bi].[Na+] (stereo unspecified)
Solution: 113 % of control

Problem: Record request: T/C value, item "CCCCCCCCCCCCCCCCS(=O)(=O)N/N=c1\cc(-c2ccccc2Cl)c2ccccc2n1C"
Solution: 92 % of control

Problem: Record request: T/C value, item "Nc1nc(N)c2cn[nH]c2n1"
Solution: 93 % of control

Problem: Record request: T/C value, item "CO[C@@]12[C@H](COC(N)=O)C3=C(C(=O)C(C)=C(N)C3=O)N1C[C@H]1[C@@H]2N1C(=O)[C@@H]1N2C(=O)[C@@H](NC(=O)Cc3ccccc3)[C@H]2SC1(C)C"
Solution: 155 % of control

Problem: Record request: T/C value, item OC(c1cc(-c2ccc(C(F)(F)F)cc2)nc(C(F)(F)F)c1)C1CCCCN1 (stereo unspecified)
Solution: 103 % of control

Problem: Record request: T/C value, item "CCOP(=O)(CC(=O)c1cc2ccccc2[nH]1)OCC"
Solution: 100 % of control

====

system: P388 leukemia ip, CD2F1 mice, survival T/C; assay: NCI In Vivo Anticancer Drug Screen. Data for tumor model P388 Leukemia (intraperitoneal) in CD2F1 (CDF1) mice; conditions: endpoint: median survival time; dose: 100.0 mg/kg/injection; schedule: Q04DX002 (ip); vehicle: Klucel (hydroxypropylcellulose) (HPC); higher = longer survival
Toxic doses and inconclusive results are not listed.
measured-attribute: T/C

{"compound": "CCNC(=O)CCC(NS(=O)(=O)c1ccccc1)C(=O)O (stereo not drawn)", "T/C": "103 % of control"}
{"compound": "CC(=O)N/N=C(/C(=O)O)c1ccccc1", "T/C": "98 % of control"}
{"compound": "COC(=O)c1cc(=O)n(-c2ccccc2C)c(SC)n1", "T/C": "105 % of control"}
{"compound": "Cc1nnc(Cc2ccc([N+](=O)[O-])cc2)c2n[nH]c(C)c12", "T/C": "90 % of control"}

Problem: Record request: T/C value, item "c1ccc2c(c1)Nc1nccnc1[Se]2"
Solution: 100 % of control

Problem: Record request: T/C value, item COc1cc([C@@H]2c3cc4c(cc3[C@@H](OC3OC5COC(C)OC5C(O)C3O)[C@H]3COC(=O)[C@H]23)OCO4)cc(OC)c1O (stereo partly drawn)
Solution: 89 % of control

Problem: Record request: T/C value, item CC(NC(=S)Nc1ccccc1)c1ccccc1 (stereo not drawn)
Solution: 96 % of control

Problem: Record request: T/C value, item "C/C=C(\C)C(=O)Nc1c(C)cccc1Cl"
Solution: 106 % of control
